- assay_comment: Caco-2 permeability assay (apical to basolateral)
- Type: in vitro ADME, human
- setup_conditions: Caco-2, Caco_Papp_Average
Where a SMILES comes first, the peptide text is derived from it. [ ]: non-standard residue; d: D form. NMeL = CN[C@@H](CC(C)C)C(=O)O; dNMeL = CN[C@H](CC(C)C)C(=O)O; NMeA = CN[C@@H](C)C(=O)O
For each entry below, report its Papp A→B value.
For clarity, give the value followed by its unit.

Recorded Papp A→B, per entry:
[[record]]
compound = "CC[C@H](C)[C@@H]1NC(=O)[C@@H](C(C)C)NC(=O)[C@@H](CC(C)C)N(C)C(=O)[C@H]2CCCN2C(=O)[C@@H](CC(C)C)NC(=O)[C@@H](CC(C)C)N(C)C(=O)[C@H](CC(C)C)NC(=O)[C@H]2CCCN2C(=O)[C@H](C)N(C)C(=O)[C@H]2CCCN2C1=O [Design D10.41] (cyclo(I[dP][NMeA][dP]L[dNMeL][dL][dP][dNMeL][dV]))"
test_result = "7.66 ×10⁻⁶ cm/s"

[[record]]
compound = "CC[C@@H](C)[C@H]1NC(=O)[C@H](CC(C)C)N(C)C(=O)[C@H]2CCCN2C(=O)[C@H](CC(C)C)NC(=O)[C@H](Cc2ccccc2)N(C)C(=O)[C@H](CC(C)C)N(C)C(=O)[C@@H](C(C)C)NC(=O)[C@H](C)NC(=O)[C@H]2CCCN2C(=O)[C@@H]2CCCN2C1=O [Design D10.17.p2]"
test_result = "8.7 ×10⁻⁶ cm/s"


Then this compound:
Could you tell me which Papp A→B is on file for CC[C@H](C)[C@@H]1NC(=O)[C@@H](CC(C)C)N(C)C(=O)[C@H](CC(C)C)N(C)C(=O)[C@@H](Cc2ccccc2)NC(=O)[C@@H](CC(C)C)N(C)C(=O)[C@H]2CCCN2C(=O)[C@H]2CCCN2C(=O)[C@@H]2CCCN2C(=O)[C@@H](C(C)C)NC(=O)[C@@H]2CCCN2C(=O)[C@H](C)NC1=O [Design D11.11] (cyclo(AP[dV]P[dP][dP][dNMeL][dF][NMeL][dNMeL]I)) ?
4.92 ×10⁻⁶ cm/s

Attribution: paper PMC9490236
